Where these numbers come from: BigSolDB 2.1

RECORDED_CONDITIONS: in isopropanol, 278.15 K
QUANTITY_MEASURED: solubility (mole fraction)

Quick note, solubility (mole fraction) for `COc1cccc(C(=O)O)c1OC` landed at 0.00832

====

RECORDED_CONDITIONS: in n-propanol, 303.15 K
QUANTITY_MEASURED: solubility (mole fraction)
Respond with the number and no other words.

Quick note, solubility (mole fraction) for `COc1cccc(C(=O)O)c1OC` landed at 0.0316

====

RECORDED_CONDITIONS: in n-propanol, 298.15 K
QUANTITY_MEASURED: solubility (mole fraction)
Respond with the number and no other words.

Quick note, solubility (mole fraction) for `COc1cccc(C(=O)O)c1OC` landed at 0.0243

====

RECORDED_CONDITIONS: in isopropyl acetate, 323.15 K
QUANTITY_MEASURED: solubility (mole fraction)
Respond with the number and no other words.

Quick note, solubility (mole fraction) for `COc1cccc(C(=O)O)c1OC` landed at 0.0499

====

RECORDED_CONDITIONS: in n-propanol, 278.15 K
QUANTITY_MEASURED: solubility (mole fraction)
Respond with the number and no other words.

Quick note, solubility (mole fraction) for `COc1cccc(C(=O)O)c1OC` landed at 0.00925

====

RECORDED_CONDITIONS: in ethylene glycol, 283.15 K
QUANTITY_MEASURED: solubility (mole fraction)
Respond with the number and no other words.

Quick note, solubility (mole fraction) for `COc1cccc(C(=O)O)c1OC` landed at 0.0529

====

RECORDED_CONDITIONS: in n-butyl acetate, 318.15 K
QUANTITY_MEASURED: solubility (mole fraction)

Quick note, solubility (mole fraction) for `COc1cccc(C(=O)O)c1OC` landed at 0.0428

====

RECORDED_CONDITIONS: in isopropyl acetate, 283.15 K
QUANTITY_MEASURED: solubility (mole fraction)
Respond with the number and no other words.

Quick note, solubility (mole fraction) for `COc1cccc(C(=O)O)c1OC` landed at 0.0111

====

RECORDED_CONDITIONS: in methanol, 293.15 K
QUANTITY_MEASURED: solubility (mole fraction)
Respond with the number and no other words.

Quick note, solubility (mole fraction) for `COc1cccc(C(=O)O)c1OC` landed at 0.0288

====

RECORDED_CONDITIONS: in 1,4-dioxane, 288.15 K
QUANTITY_MEASURED: solubility (mole fraction)
Respond with the number and no other words.

Quick note, solubility (mole fraction) for `COc1cccc(C(=O)O)c1OC` landed at 0.0585

====

RECORDED_CONDITIONS: in n-butanol, 308.15 K
QUANTITY_MEASURED: solubility (mole fraction)
Respond with the number and no other words.

Quick note, solubility (mole fraction) for `COc1cccc(C(=O)O)c1OC` landed at 0.0362

====

RECORDED_CONDITIONS: in 2-ethoxyethanol, 313.15 K
QUANTITY_MEASURED: solubility (mole fraction)
Respond with the number and no other words.

Quick note, solubility (mole fraction) for `COc1cccc(C(=O)O)c1OC` landed at 0.109

====

RECORDED_CONDITIONS: in isopropanol, 298.15 K
QUANTITY_MEASURED: solubility (mole fraction)
Respond with the number and no other words.

Quick note, solubility (mole fraction) for `COc1cccc(C(=O)O)c1OC` landed at 0.0233
